Biological target: T1, NPR-A receptor (UniProt P16066 33-1061, limits assumed)
T1 sequence (looked up): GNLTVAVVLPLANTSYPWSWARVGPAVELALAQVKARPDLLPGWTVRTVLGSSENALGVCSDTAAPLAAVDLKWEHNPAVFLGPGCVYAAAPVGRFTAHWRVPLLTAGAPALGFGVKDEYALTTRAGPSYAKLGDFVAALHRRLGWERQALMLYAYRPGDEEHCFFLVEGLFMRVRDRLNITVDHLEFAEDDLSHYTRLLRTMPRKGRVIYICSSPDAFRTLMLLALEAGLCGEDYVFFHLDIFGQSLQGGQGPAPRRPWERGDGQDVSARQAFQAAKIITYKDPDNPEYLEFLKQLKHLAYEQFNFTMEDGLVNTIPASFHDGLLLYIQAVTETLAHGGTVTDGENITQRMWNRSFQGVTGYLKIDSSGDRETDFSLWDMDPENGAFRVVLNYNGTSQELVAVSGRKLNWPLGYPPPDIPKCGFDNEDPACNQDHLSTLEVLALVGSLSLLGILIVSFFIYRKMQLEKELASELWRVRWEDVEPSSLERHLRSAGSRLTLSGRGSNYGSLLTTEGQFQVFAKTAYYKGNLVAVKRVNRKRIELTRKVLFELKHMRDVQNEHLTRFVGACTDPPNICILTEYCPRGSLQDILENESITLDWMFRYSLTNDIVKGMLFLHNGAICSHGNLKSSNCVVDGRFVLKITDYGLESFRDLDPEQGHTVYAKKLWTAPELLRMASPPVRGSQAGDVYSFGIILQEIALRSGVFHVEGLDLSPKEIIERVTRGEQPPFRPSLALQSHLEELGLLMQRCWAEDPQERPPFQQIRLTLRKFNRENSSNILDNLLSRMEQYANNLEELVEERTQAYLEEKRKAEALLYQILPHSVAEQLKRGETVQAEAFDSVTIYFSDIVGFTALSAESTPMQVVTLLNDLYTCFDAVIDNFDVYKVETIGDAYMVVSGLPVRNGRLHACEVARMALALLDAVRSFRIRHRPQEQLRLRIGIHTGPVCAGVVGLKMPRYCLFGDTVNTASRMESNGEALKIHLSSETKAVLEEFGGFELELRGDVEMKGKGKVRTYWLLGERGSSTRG
Test: cell-based or functional assay
No end group written: not given here. *: point of attachment. code T = T O-glycan (Galβ1-3GalNAc), CC(=O)N[C@@H]1[C@@H](O[C@@H]2O[C@H](CO)[C@H](O)[C@H](O)[C@H]2O)[C@@H](O)[C@@H](CO)O[C@@H]1*; ST = sialylated T O-glycan
potency, cGMP generated (HTRF) values, listed per item

# BINDER, potency, cGMP generated (HTRF)
rows = [
    ("SLRRSSCFGGRMDRIGAQS(ST)GLGCNSFRY (ends and bridges not checked) [ANP with ST O-glycan at residue 19]", "296 nM"),
    ("SLRRSSCFGGRMDRIGAQS(code T)GLGCNSFRY (ends and bridges not checked) [ANP with T O-glycan at residue 19]", "160 nM"),
    ("SLRRSSCFGGRMDRIGAQSGLGCNS(ST)FRY (ends and bridges not checked) [ANP with ST O-glycan at residue 25]", "717 nM"),
]

Taken from patent US20210171598A1.
